# Measurement Target: GOPC, Q9HD26
# Experiment Description: holdup assay
# Set-up: key: below the threshold = too weak to quantify, mostly under pKd 3.1 to 4
# Reported Conditions: plain residues with an end cap or a label only (N-terminal biotin on a linker: ado-ado)
Recorded Metric: pKd

ELSATVTTDC [TRIP6, Q15654] : below the threshold
REEPDHSTEV [CCRL2, O00421] : 3.56
AQRARSPSDV [GPR12, P47775] : below the threshold
RFQQRMQTHV [KIRREL1, Q96J84] : 3.91
STKRKLASAV [NCF1, P14598] : below the threshold
TGLWKHETTV [ADGRA3, Q8IWK6] : 3.92
EIPAQSPTCV [FZD10, Q9ULW2] : 3.94
VKRNSKETVV [MARCHF3, Q86UD3] : below the threshold

Values from paper PMC9482650
